target: feline FcRn complex (FcRn-α subunit and β-microglobulin), biotin labeled (feline); assay: SPR, pH 6
In this section, each of the binders is paired with its reported pKd.
Value format note: pKd is -log10 of concentration (mol/L); just state the number.

Guide cases for pKd, answers given:
feline IgG1a S252H/Q311W (antibody, part only; not given: Variable domains, not shown: another chain or arm of the molecule; small tags and cut ends) constant: ASTTAPSVFPLAPSCGTTSGATVALACLVLGYFPEPVTVSWNSGALTSGVHTFPAVLQASGLYSLSSMVTVPSSRWLSDTFTCNVAHPPSNTKVDKTVRKTDHPPGPKPCDCPKCPPPEMLGGPSIFIFPPKPKDTLHISRTPEVTCLVVDLGPDDSDVQITWFVDNTQVYTAKTSPREEQFNSTYRVVSVLPILHWDWLKGKEFKCKVNSKSLPSPIERTISKAKGQPHEPQVYVLPPAQEELSRNKVSVTCLIKSFHPPDIAVEWEITGQPEPENNYRTTPPQLDSDGTYFVYSKLSVDRSHWQRGNTYTCSVSHEALHSHHTQKSLTQSPGK : 8.22
feline IgG1a S252H/S434W (antibody, part only; not given: Variable domains, not shown: another chain or arm of the molecule) constant: ASTTAPSVFPLAPSCGTTSGATVALACLVLGYFPEPVTVSWNSGALTSGVHTFPAVLQASGLYSLSSMVTVPSSRWLSDTFTCNVAHPPSNTKVDKTVRKTDHPPGPKPCDCPKCPPPEMLGGPSIFIFPPKPKDTLHISRTPEVTCLVVDLGPDDSDVQITWFVDNTQVYTAKTSPREEQFNSTYRVVSVLPILHQDWLKGKEFKCKVNSKSLPSPIERTISKAKGQPHEPQVYVLPPAQEELSRNKVSVTCLIKSFHPPDIAVEWEITGQPEPENNYRTTPPQLDSDGTYFVYSKLSVDRSHWQRGNTYTCSVSHEALHWHHTQKSLTQSPGK : 9.33
feline IgG1a S254Y (antibody, part only; not given: Variable domains, not shown: another chain or arm of the molecule) constant: ASTTAPSVFPLAPSCGTTSGATVALACLVLGYFPEPVTVSWNSGALTSGVHTFPAVLQASGLYSLSSMVTVPSSRWLSDTFTCNVAHPPSNTKVDKTVRKTDHPPGPKPCDCPKCPPPEMLGGPSIFIFPPKPKDTLSIYRTPEVTCLVVDLGPDDSDVQITWFVDNTQVYTAKTSPREEQFNSTYRVVSVLPILHQDWLKGKEFKCKVNSKSLPSPIERTISKAKGQPHEPQVYVLPPAQEELSRNKVSVTCLIKSFHPPDIAVEWEITGQPEPENNYRTTPPQLDSDGTYFVYSKLSVDRSHWQRGNTYTCSVSHEALHSHHTQKSLTQSPGK : 7.11

Given the entry feline IgG1a Q311L (antibody, part only; not given: Variable domains, not shown: another chain or arm of the molecule) constant: ASTTAPSVFPLAPSCGTTSGATVALACLVLGYFPEPVTVSWNSGALTSGVHTFPAVLQASGLYSLSSMVTVPSSRWLSDTFTCNVAHPPSNTKVDKTVRKTDHPPGPKPCDCPKCPPPEMLGGPSIFIFPPKPKDTLSISRTPEVTCLVVDLGPDDSDVQITWFVDNTQVYTAKTSPREEQFNSTYRVVSVLPILHLDWLKGKEFKCKVNSKSLPSPIERTISKAKGQPHEPQVYVLPPAQEELSRNKVSVTCLIKSFHPPDIAVEWEITGQPEPENNYRTTPPQLDSDGTYFVYSKLSVDRSHWQRGNTYTCSVSHEALHSHHTQKSLTQSPGK , report its measured pKd.
8.20

Where these numbers come from: patent US20240400708A1
